Cited source: ChEMBL document CHEMBL1124301

# assay_system: Muscarinic acetylcholine receptor
# test_name: Antagonist activity against Muscarinic acetylcholine receptor of rat bladder
# Format: functional
test_readout: pA2

compound="C[N+](C)(C)C[C@@H]1C[S@@+]([O-])C(C2CCCCC2)(C2CCCCC2)O1.[I-] (stereo in doubt; (+)-4)" test_readout=pA2 recorded_number=5.51
compound="C[N+](C)(C)C[C@@H]1C[S@+]([O-])C(C2CCCCC2)(C2CCCCC2)O1.[I-] (stereo in doubt; (+)-6)" test_readout=pA2 recorded_number=6.27
compound="C[N+](C)(C)C[C@@H]1CSC(C2CCCCC2)(C2CCCCC2)O1.[I-] (stereo in doubt; (-)-2)" test_readout=pA2 recorded_number=6.34
compound="C[N+](C)(C)C[C@@H]1CSC(C2CCCCC2)(C2CCCCC2)O1.[I-] (stereo in doubt; (+)-2)" test_readout=pA2 recorded_number=6.28
compound="C[N+](C)(C)C[C@@H]1C[S@@+]([O-])C(C2CCCCC2)(C2CCCCC2)O1.[I-] (racemic)" test_readout=pA2 recorded_number=6.03
compound="C[N+](C)(C)C[C@@H]1C[S@@+]([O-])C(C2CCCCC2)(C2CCCCC2)O1.[I-] (stereo in doubt; (-)-4)" test_readout=pA2 recorded_number=6.36
compound="C[N+](C)(C)C[C@@H]1C[S@+]([O-])C(C2CCCCC2)(C2CCCCC2)O1.[I-] (stereo in doubt; (-)-6)" test_readout=pA2 recorded_number=5.48
compound="C[N+](C)(C)C[C@@H]1C[S@+]([O-])C(C2CCCCC2)(C2CCCCC2)O1.[I-] (racemic)" test_readout=pA2 recorded_number=5.99
compound="C[N+](C)(C)C[C@@H]1CSC(C2CCCCC2)(C2CCCCC2)O1.[I-] (racemic)" test_readout=pA2 recorded_number=6.26
